Origin of the recorded values: the supplement of paper PMC8728848

- measuredTarget: Fuc(a1-2)Gal(b1-3)[Fuc(a1-4)]GlcNAc(b1-2)Man(a1-3)[Fuc(a1-2)Gal(b1-3)[Fuc(a1-4)]GlcNAc(b1-2)Man(a1-3)]Man(b1-4)GlcNAc(b1-4)GlcNAc
- assayExplanation: glycan array binding signal (z-score within array); higher = stronger binding
- conditionSet: glycan notation: IUPAC condensed, linker removed
The entries come from a sample that favours the strongest signals as a whole.
quantityName: glycan array binding signal (z-score)
Number, no unit, nothing else.

Wzz (Escherichia coli) (protein) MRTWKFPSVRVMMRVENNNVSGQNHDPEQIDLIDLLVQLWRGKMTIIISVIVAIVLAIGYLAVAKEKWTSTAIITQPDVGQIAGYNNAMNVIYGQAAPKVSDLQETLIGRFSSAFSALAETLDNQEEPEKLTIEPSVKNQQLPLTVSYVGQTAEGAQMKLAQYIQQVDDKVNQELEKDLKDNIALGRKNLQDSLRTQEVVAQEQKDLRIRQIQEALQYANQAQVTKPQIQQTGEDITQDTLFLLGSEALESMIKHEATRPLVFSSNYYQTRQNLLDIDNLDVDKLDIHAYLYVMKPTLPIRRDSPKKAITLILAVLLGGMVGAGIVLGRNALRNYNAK ... 0.002
EfCBM33A (Enterococcus faecalis), Q838S1 (protein) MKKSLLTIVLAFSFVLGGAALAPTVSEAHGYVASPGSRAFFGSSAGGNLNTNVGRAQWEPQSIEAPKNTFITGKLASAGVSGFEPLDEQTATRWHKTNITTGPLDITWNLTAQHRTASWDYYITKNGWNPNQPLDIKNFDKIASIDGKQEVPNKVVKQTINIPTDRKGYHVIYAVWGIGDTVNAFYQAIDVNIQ ... 0.371

Quick one: glycan array binding signal (z-score) of PfulAvr4 (Pseudocercospora fuligena) (protein) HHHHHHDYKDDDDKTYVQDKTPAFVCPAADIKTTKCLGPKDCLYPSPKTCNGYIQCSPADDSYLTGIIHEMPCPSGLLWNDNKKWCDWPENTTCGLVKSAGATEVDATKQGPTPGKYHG ?
1.42
